# ASSAY: Metabolic stability in human hepatic microsome
# Assay type: in vitro ADME
# DETAILS: microsomes, pH 7.4; human hepatic microsome, NADPH(+); read-out: CL NADPH(+)
Starred links: 1 amine or outer side, 2 acyl side, 3 side chain; linkers in the order of their positions; H or OH if unused. Positions of bridges follow the written chain, without caps; N, C: chain ends. Non-standard residues stand in square brackets, D forms with d. Residues, ends and D or L forms follow the SMILES beside them. *: point of attachment. NMeF = CN[C@@H](Cc1ccccc1)C(=O)O; NMeβAla = CN(CCC(=O)[*:2])[*:1]; NMeL = CN[C@@H](CC(C)C)C(=O)O; NMeA = CN[C@@H](C)C(=O)O; Piperidide = C1CCN(*)CC1
Recorded measurements of microsomal CLint at 1 uM, one per entry
Record the result as number plus unit.

CC[C@H](C)[C@@H]1NC(=O)[C@@H](C)NC(=O)C[C@@H](C(=O)N2CCCCC2)NC(=O)[C@H](Cc2ccccc2)NC(=O)[C@H]([C@@H](C)O)NC(=O)[C@H](C)NC(=O)[C@H](Cc2ccccc2)NC(=O)[C@H](CC(C)C)NC(=O)[C@H](CC(C)C)N(C)C(=O)[C@H](Cc2ccccc2)NC(=O)[C@H](CC(C)C)NC1=O [DP-415] ([dA]ILF[NMeL]LFATFD-Piperidide; lactam N-11) | 118 µL/min/mg

Prompt: Quick check: microsomal CLint at 1 uM of CC(C)C[C@H]1C(=O)N(C)[C@@H](CC(C)C)C(=O)N(C)[C@@H](CC(C)C)C(=O)N[C@H](C(=O)N2CCCCC2)CC(=O)N(C)CCC(=O)N(C)[C@@H](Cc2ccccc2)C(=O)N(C)[C@@H](CC(C)C)C(=O)N[C@@H]([C@@H](C)O)C(=O)N(C)[C@@H](C)C(=O)NCC(=O)N1C [DP-428] ([NMeβAla][NMeF][NMeL]T[NMeA]G[NMeL][NMeL][NMeL]D-Piperidide; lactam N-10) ?
Completion: 77 µL/min/mg
